Tested on: E28 (patient-derived glioblastoma stem cells of classical subtype)
Test Name: surviving fraction (nuclei count normalised to DMSO); higher = more cells surviving (less toxic)
Recorded Conditions: 1000 nM; exposure time: 72 h
Structures can show the parent of a compound that is named as a salt.
Property Measured: surviving fraction
Numbers only.

The cases that follow already have their surviving fraction on record.
INSERT INTO assay_data (compound, recorded_number) VALUES
  ('OC(c1cc(C(F)(F)F)nc2c(C(F)(F)F)cccc12)C1CCCCN1 (centres undefined) [Mefloquine hydrochloride]', 1.21),
  ('CNCCc1ccccn1 [Betahistine mesylate]', 1.1),
  ('CCC1=C[C@@H]2CN(C1)Cc1c([nH]c3ccccc13)[C@@](C(=O)OC)(c1cc3c(cc1OC)N(C)[C@H]1[C@@](O)(C(=O)OC)[C@H](OC(C)=O)[C@]4(CC)C=CCN5CC[C@]31[C@@H]54)C2 [Vinorelbine Tartrate]', 0.375);

In the following, a different compound is considered.
Item: CC(=O)CC(c1ccc([N+](=O)[O-])cc1)c1c(O)c2ccccc2oc1=O (centres undefined) Test system: E28 Read-out: surviving fraction Value: ?
0.92

----------
Tested on: E21 (patient-derived glioblastoma stem cells of mesenchymal subtype);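 also: cell Painting imaging in 384-well plates, CellProfiler features reduced to at least 20 principal components, Euclidean distance versus same-plate DMSO vehicle wells (0.1% v/v), median over six images per well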
Test Name: phenotypic distance (Euclidean, principal components) from DMSO controls (arbitrary units); higher = stronger morphological change
Recorded Conditions: 4.1 nM; exposure time: 72 h
Structures can show the parent of a compound that is named as a salt.
Give phenotypic distance for every item shown.
Numbers only.

Solved cases below.
INSERT INTO results (compound, study_target, recorded_number) VALUES
  ('Cc1cc(C(C)(C)CC(C)(C)C)ccc1OCCOCC[N+](C)(C)Cc1ccccc1 [Methyl benzethonium chloride]', 'E21', 0.505),
  ('C#C[C@]1(O)CC[C@H]2[C@@H]3CCC4=CCCC[C@@H]4[C@H]3CC[C@@]21C', 'E21', 0.397),
  ('C#C[C@]1(O)CC[C@H]2[C@@H]3CCc4cc(OC5CCCC5)ccc4[C@H]3CC[C@@]21C', 'E21', 0.608);

Below is a list of compounds. For each, state its recorded phenotypic distance.
1. CO[C@H]1C(=O)[C@]2(C)[C@@H](OC)C[C@H]3OC[C@@]3(OC(C)=O)[C@H]2[C@H](OC(=O)c2ccccc2)[C@]2(O)C[C@H](OC(=O)[C@H](O)[C@@H](NC(=O)OC(C)(C)C)c3ccccc3)C(C)=C1C2(C)C
2. COC(=O)Nc1nc2cc(C(=O)c3ccccc3)ccc2[nH]1
3. CN(C)CCN(Cc1ccc(Cl)cc1)c1ccccn1 [Chloropyramine hydrochloride]
4. CC[C@@]1(O)C(=O)OCc2c1cc1n(c2=O)Cc2cc3cc(O)ccc3nc2-1 [Hydroxy Camptothecine]

1: 7.35; 2: 1.49; 3: 0.655; 4: 4.52

----------
Tested on: E31 (patient-derived glioblastoma stem cells of proneural subtype)
Test Name: surviving fraction (nuclei count normalised to DMSO); higher = more cells surviving (less toxic)
Recorded Conditions: 111.1 nM; exposure time: 72 h
Property Measured: surviving fraction
Give bare numbers.

INSERT INTO measurements (smiles_string, property_measured, recorded_number) VALUES
  ('COC(=O)Nc1nc2cc(Sc3ccccc3)ccc2[nH]1', 'surviving fraction', 0.749),
  ('COc1ccc2c(c1)CC[C@@H]1[C@@H]2CC[C@]2(C)[C@@H](NCCCCCCN3C(=O)CCC3=O)CC[C@@H]12', 'surviving fraction', 1.05);

Lab note: next compound to report on.
Record request: surviving fraction value, item Nc1ncnc2c1c(-c1ccc(Oc3ccccc3)cc1)cn2C1CCCC1
0.95
